Consider the following compounds; for each one, report its Kd.
target: RAF kinases (Homo sapiens, UniProt P15056, V600E); test: biochemical
Sequence (P15056 whole entry V600E): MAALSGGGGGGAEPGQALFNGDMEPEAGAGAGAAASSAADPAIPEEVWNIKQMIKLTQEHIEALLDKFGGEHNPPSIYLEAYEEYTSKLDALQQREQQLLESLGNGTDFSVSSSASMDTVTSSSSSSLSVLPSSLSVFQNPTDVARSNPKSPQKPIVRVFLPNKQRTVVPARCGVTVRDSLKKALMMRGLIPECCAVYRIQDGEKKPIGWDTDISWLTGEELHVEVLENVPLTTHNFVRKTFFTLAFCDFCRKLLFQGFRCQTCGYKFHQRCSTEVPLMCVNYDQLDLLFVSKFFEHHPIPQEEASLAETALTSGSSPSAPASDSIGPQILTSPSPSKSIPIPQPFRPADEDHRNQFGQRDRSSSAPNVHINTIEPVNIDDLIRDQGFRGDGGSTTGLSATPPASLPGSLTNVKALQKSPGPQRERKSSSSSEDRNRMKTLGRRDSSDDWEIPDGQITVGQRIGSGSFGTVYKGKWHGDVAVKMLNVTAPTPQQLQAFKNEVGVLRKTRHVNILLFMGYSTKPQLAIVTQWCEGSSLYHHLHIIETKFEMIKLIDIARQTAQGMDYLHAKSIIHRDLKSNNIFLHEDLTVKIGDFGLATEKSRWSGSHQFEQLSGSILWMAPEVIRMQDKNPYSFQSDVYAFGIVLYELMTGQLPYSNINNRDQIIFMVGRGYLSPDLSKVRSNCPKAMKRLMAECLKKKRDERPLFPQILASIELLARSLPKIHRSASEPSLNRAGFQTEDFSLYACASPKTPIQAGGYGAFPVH

Previously resolved entries follow.
chem smiles | test system | Kd
COc1cc2ncnc(Sc3cccc(NC(=O)Nc4cc(C(C)(C)C(F)(F)F)on4)c3)c2cc1OC | RAF kinases (Homo sapiens, UniProt P15056, V600E) | < 250 nM
COCCOc1cc2ncnc(Oc3cccc(NC(=O)Nc4cc(C(F)(F)F)n(-c5ccccc5)n4)c3)c2cc1OC | RAF kinases (Homo sapiens, UniProt P15056, V600E) | 250 to 500 nM

Please find the next compound below.
input: So what does the record say about Kd for "COc1cc2ncnc(Oc3ccc(Cl)c(NC(=O)Nc4cc(C(F)(F)F)nn4-c4ccccc4)c3)c2cc1OC" ?
output: 500 to 1000 nM
